Data origin, for the record: patent US20250206732A1

Target: AsPC-1 HiBiT-KRASG12D (Homo sapiens, UniProt P01116, G12D)
Construct: insert the HiBiT tag onto the N-terminus of one or more of the endogenous KRAS alleles; endogenous in cells; host or cells: AsPC-1 (ATCC CRL-1682), CRISPR-Cas9 knock-in clone, one tagged allele
Sequence (P01116 1-188 isoform P01116-2 G12D): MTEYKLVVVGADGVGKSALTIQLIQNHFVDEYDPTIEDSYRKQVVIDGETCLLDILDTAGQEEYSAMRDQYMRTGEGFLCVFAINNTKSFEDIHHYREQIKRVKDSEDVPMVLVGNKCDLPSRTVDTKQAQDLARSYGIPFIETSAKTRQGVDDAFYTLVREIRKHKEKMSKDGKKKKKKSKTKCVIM
Assay: HiBiT degradation assay (G12D), AsPC-1 HiBiT-KRASG12D cells
Type: cell-based
Conditions: AsPC-1 HiBiT-KRASG12D cells, 24 hours treatment, HiBiT luminescence
Consider the following compounds and their measured DC50 readings.

Example cases with answers are listed next.
| Compound | DC50 |
| --- | --- |
| CCc1cccc2cc(O)cc(-c3ncc4c(N5CC6CCC(C5)N6)nc(OC[C@]56CCCN5[C@@H](COc5cc([C@@H](C(=O)N7C[C@H](O)C[C@H]7C(=O)N[C@@H](C)c7ccc(-c8scnc8C)cc7)C(C)C)on5)CC6)nc4c3F)c12 | > 3000 nM |
| C#Cc1c(F)ccc2cc(O)cc(-c3ncc4c(N5CC6CCC(C5)N6)nc(OCCN5CCC(COc6cc([C@@H](C(=O)N7C[C@H](O)C[C@H]7C(=O)N[C@@H](C)c7ccc(-c8ccnn8C)cc7)C(C)C)on6)CC5)nc4c3F)c12 (relative stereo) | 1000 to 3000 nM |
| CCc1cccc2cc(O)cc(-c3ncc4c(N5CC6CCC(C5)N6)nc(OCCN5CCC(F)(CN6CCN(c7cc([C@@H](C(=O)N8C[C@H](O)C[C@H]8C(=O)N[C@@H](C)c8ccc(-c9scnc9C)cc8)C(C)C)on7)C[C@H]6C)CC5)nc4c3F)c12 | 1000 to 3000 nM |
| CCc1cccc2cc(O)cc(-c3ncc4c(N5CC6CCC(C5)N6)nc(OCCN5C[C@@H]6CN(c7cc([C@@H](C(=O)N8C[C@H](O)C[C@H]8C(=O)N[C@@H](C)c8ccc(-c9scnc9C)cc8)C(C)C)on7)C[C@H]6C5)nc4c3F)c12 (relative stereo) | 1000 to 3000 nM |
| Cc1ncsc1-c1ccc([C@H](C)NC(=O)[C@@H]2C[C@@H](O)CN2C(=O)[C@@H](c2cc(N3CCN(C(=O)OC[C@H]4CC[C@@]5(COc6nc(N7CC8CCC(C7)N8)c7cc(Cl)c(-c8cc(O)cc9ccccc89)c(F)c7n6)CCCN45)CC3)no2)C(C)C)cc1 (single isomer, unassigned) | < 600 nM |

Ask | Would you kindly share the measured DC50 for CCc1cccc2cc(O)cc(-c3ncc4c(N5CC6CCC(C5)N6)nc(OCCN5CCC(C(C)(C)N6CCN(c7cc([C@@H](C(=O)N8C[C@H](O)C[C@H]8C(=O)N[C@@H](C)c8ccc(-c9scnc9C)cc8)C(C)C)on7)CC6)CC5)nc4c3F)c12 (single isomer, unassigned) ?
Reply | 600 to 1000 nM

Ask | Would you kindly share the measured DC50 for CCc1cccc2cc(O)cc(-c3ncc4c(N5CC6CCC(C5)N6)nc(OC[C@@]56CCCN5[C@H](COC(=O)N5CCN(c7cc([C@H](C(=O)N8C[C@H](O)C[C@H]8C(=O)N[C@@H](C)c8ccc(-c9scnc9C)cc8)C(C)C)on7)CC5)CC6)nc4c3F)c12 (relative stereo) [Compound 107] ?
Reply | < 600 nM
